Cited source for all entries: patent EP3722296B1

- System: c-KIT kinase (Homo sapiens)
- Experiment: c-KIT kinase Assay
- Type: biochemical
- Parameters: cKIT residues T544-V976; GST (N); TEV cleavage site (internal); purchased deCODE Biostructures
- Measurement Conditions: enzymatic assay, ATP 200 µM; read-out: KIT (wt) IC50
pIC50: −log10 of the molar value.
pIC50 by entry:

Completed entries (count: 5):
INSERT INTO assay_data (compound, measurement_name, test_result) VALUES
  ('CCn1c(=O)c(-c2cc(NC(=O)Nc3ccccc3)c(F)cc2C)cc2cnc(NC(C)=O)cc21 [Example 80]', 'pIC50', '> 8.00'),
  ('CNc1cc2c(cn1)cc(-c1cc(NC(=O)Nc3cccc(F)c3)c(F)cc1C)c(=O)n2C(C)C [Example 41]', 'pIC50', '> 8.00'),
  ('CCn1c(=O)c(-c2cc(NC(=O)Nc3ccccc3)c(F)cc2Br)cc2cnc(NCCOC)cc21 [Example 51]', 'pIC50', '7.00 to 8.00'),
  ('CCn1c(=O)c(-c2cc(NC(=O)Nc3cc(F)cc(Cl)c3)c(F)cc2Cl)cc2cnc(NC)cc21 [Example 71]', 'pIC50', '7.00 to 8.00'),
  ('CCn1c(=O)c(-c2cc(NC(=O)Nc3ccc(F)c(CN4CCN(C)CC4)c3)c(F)cc2C)cc2cnc(N)cc21 [Example 93]', 'pIC50', '7.00 to 8.00');

Look up pIC50 with c-KIT kinase (Homo sapiens) for this compound: CCn1c(=O)c(-c2cc(NC(=O)Nc3cccc(F)c3)c(F)cc2C)cc2cnc(NC(C)=O)cc21 [Example 78] > 8.00

Reported pIC50 for c-KIT kinase (Homo sapiens), given CCn1c(=O)c(-c2cc(NC(=O)Nc3ccccc3)c(F)cc2Cl)cc2cnc(NC(=O)OC)cc21 [Example 73] ? 7.00 to 8.00

###

- System: c-KIT kinase (Homo sapiens, UniProt P10721)
- Sequence (P10721 544-976): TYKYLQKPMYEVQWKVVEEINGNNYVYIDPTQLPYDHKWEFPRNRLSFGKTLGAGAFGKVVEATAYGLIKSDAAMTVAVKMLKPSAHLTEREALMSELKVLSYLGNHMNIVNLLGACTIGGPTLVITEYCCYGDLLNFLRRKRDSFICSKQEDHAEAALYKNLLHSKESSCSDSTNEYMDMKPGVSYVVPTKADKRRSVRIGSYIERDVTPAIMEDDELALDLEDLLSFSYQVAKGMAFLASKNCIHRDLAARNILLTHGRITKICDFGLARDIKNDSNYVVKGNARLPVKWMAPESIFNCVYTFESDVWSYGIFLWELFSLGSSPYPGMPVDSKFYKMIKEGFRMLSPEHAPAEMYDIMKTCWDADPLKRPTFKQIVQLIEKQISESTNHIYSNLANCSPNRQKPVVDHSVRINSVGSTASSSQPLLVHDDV
- Experiment: c-KIT kinase Assay
- Format: biochemical
- Set-up: cKIT residues T544-V976; GST (N); TEV cleavage site (internal); purchased deCODE Biostructures
- Measurement Conditions: enzymatic assay, ATP 200 µM; read-out: KIT (wt) IC50
Some molecules, each annotated with its measured IC50.

Example entries begin here.
INSERT INTO assay_data (molecule, system, test_result) VALUES
  ('CCn1c(=O)c(-c2cc(NC(=O)Nc3ccccc3)c(F)cc2Cl)cc2cnc(NCCN(C)C)cc21 [Example 29]', 'c-KIT kinase (Homo sapiens, UniProt P10721)', '10 to 100 nM'),
  ('CCn1c(=O)c(-c2cc(NC(=O)Nc3cccc4ccccc34)c(F)cc2Cl)cc2cnc(NC)cc21 [Example 6]', 'c-KIT kinase (Homo sapiens, UniProt P10721)', '< 10 nM'),
  ('CC(=O)Nc1cc2c(cn1)cc(-c1cc(NC(=O)Nc3ccccc3)c(F)cc1Cl)c(=O)n2C(C)C [Example 86]', 'c-KIT kinase (Homo sapiens, UniProt P10721)', '< 10 nM'),
  ('CCn1c(=O)c(-c2cc(NC(=O)Nc3ccccc3)c(F)cc2Cl)cc2cnc(NC(=O)N3CC(N(C)C)C3)cc21 [Example 102]', 'c-KIT kinase (Homo sapiens, UniProt P10721)', '< 10 nM'),
  ('CCn1c(=O)c(-c2cc(NC(=O)Nc3ccccc3)c(F)cc2Br)cc2cnc(NC(=O)CC#N)cc21 [Example 64]', 'c-KIT kinase (Homo sapiens, UniProt P10721)', '10 to 100 nM'),
  ('CCn1c(=O)c(-c2cc(NC(=O)Nc3ccccc3)c(F)cc2Cl)cc2cnc(NC(=O)CC#N)cc21 [Example 65]', 'c-KIT kinase (Homo sapiens, UniProt P10721)', '< 10 nM');

Given the entry CCn1c(=O)c(-c2cc(NC(=O)Nc3cccc(F)c3)c(F)cc2C)cc2cnc(NC(=O)N(C)C)cc21 [Example 106] , report its measured IC50. 10 to 100 nM

Query: IC50; subject: CCn1c(=O)c(-c2cc(NC(=O)Nc3cc(F)cc(F)c3)c(F)cc2Cl)cc2cnc(NC)cc21 [Example 55] 10 to 100 nM

Dear colleague, I am looking for the recorded IC50 of the following molecule: CCn1c(=O)c(-c2cc(NC(=O)Nc3ccccc3)c(F)cc2Cl)cc2cnc(NC(=O)N3CC(O)C3)cc21 [Example 81] < 10 nM

###

- System: c-KIT D816H kinase (Homo sapiens, UniProt P10721, D816H)
- Construct: The construct contains residues T544-V976 of cKit; GST (N); TEV cleavage site (internal)
- Sequence (P10721 544-976 D816H): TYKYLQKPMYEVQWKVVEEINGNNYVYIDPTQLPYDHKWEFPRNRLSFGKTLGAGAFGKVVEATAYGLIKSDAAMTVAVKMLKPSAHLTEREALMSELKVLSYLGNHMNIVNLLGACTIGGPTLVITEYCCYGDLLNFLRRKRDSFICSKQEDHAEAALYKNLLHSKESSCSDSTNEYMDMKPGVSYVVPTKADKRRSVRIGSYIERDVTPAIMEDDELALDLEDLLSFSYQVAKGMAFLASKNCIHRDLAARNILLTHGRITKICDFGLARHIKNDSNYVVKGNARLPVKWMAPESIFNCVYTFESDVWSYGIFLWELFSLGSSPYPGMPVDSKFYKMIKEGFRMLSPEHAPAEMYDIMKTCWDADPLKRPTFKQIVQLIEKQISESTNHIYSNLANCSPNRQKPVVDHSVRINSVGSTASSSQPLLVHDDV
- Experiment: c-KIT D816H Kinase Assay
- Measurement Conditions: enzymatic assay, ATP 200 µM
Below, each of the compounds is paired with its reported IC50 value.

See these solved cases before continuing.
INSERT INTO assay_data (compound, measurement_name, test_result) VALUES
  ('CCn1c(=O)c(-c2cc(NC(=O)Nc3ccccc3)c(F)cc2C)cc2cnc(NC)cc21 [Example 23]', 'IC50', '10 to 100 nM'),
  ('CCn1c(=O)c(-c2cc(NC(=O)Nc3cccc(F)c3)c(F)cc2Cl)cc2cnc(N)cc21 [Example 20]', 'IC50', '< 10 nM'),
  ('CCn1c(=O)c(-c2cc(NC(=O)Nc3cccc(F)c3)c(F)cc2C)cc2cnc(NC)cc21 [Example 44]', 'IC50', '< 10 nM'),
  ('CCn1c(=O)c(-c2cc(NC(=O)Nc3cccc(F)c3)c(F)cc2Cl)cc2cnc(NCCOC)cc21 [Example 28]', 'IC50', '10 to 100 nM'),
  ('CCn1c(=O)c(-c2cc(NC(=O)Nc3ccc(F)c(CN4CCN(C)CC4)c3)c(F)cc2F)cc2cnc(NC)cc21 [Example 90]', 'IC50', '10 to 100 nM'),
  ('CCn1c(=O)c(-c2cc(NC(=O)Nc3cccc4ccccc34)c(F)cc2Cl)cc2cnc(NC)cc21 [Example 6]', 'IC50', '10 to 100 nM');

Endpoint output: IC50 of CCn1c(=O)c(-c2cc(NC(=O)Nc3ccc(F)c(CN4CCN(C)CC4)c3)c(F)cc2C)cc2cnc(NC)cc21 [Example 89] . Value? 10 to 100 nM

Which IC50 reading was recorded for the compound CNc1cc2c(cn1)cc(-c1cc(NC(=O)Nc3cccc(F)c3)c(F)cc1C)c(=O)n2C(C)C [Example 41] ? < 10 nM

Data request, read-out IC50, for CCn1c(=O)c(-c2cc(NC(=O)Nc3ccc(F)cc3)c(F)cc2Cl)cc2cnc(NCCOC)cc21 [Example 34] 10 to 100 nM

I would be grateful if you could share the reported IC50 for CCn1c(=O)c(-c2cc(NC(=O)Nc3ccccc3)c(F)cc2Cl)cc2cnc(NC(=O)OC)cc21 [Example 73] . 10 to 100 nM

Given the entry CCn1c(=O)c(-c2cc(NC(=O)Nc3ccccc3)c(F)cc2C)cc2cnc(NCCOC)cc21 [Example 37] , report its measured IC50. 10 to 100 nM

I would be grateful if you could share the reported IC50 for CCn1c(=O)c(-c2cc(NC(=O)Nc3ccc(F)c(CN4CCN(C)CC4)c3)c(F)cc2Cl)cc2cnc(NC)cc21 [Example 87] . 10 to 100 nM

Would you kindly share the measured IC50 for CCn1c(=O)c(-c2cc(NC(=O)Nc3cccc(F)c3)c(F)cc2F)cc2cnc(NC)cc21 [Example 15] ? 10 to 100 nM

I have this compound here, CC(C)n1c(=O)c(-c2cc(NC(=O)Nc3ccccc3)c(F)cc2Cl)cc2cnc(NC(=O)N(C)C)cc21 [Example 103] , and I need its recorded IC50. 10 to 100 nM

Which IC50 value belongs to CCn1c(=O)c(-c2cc(NC(=O)Nc3ccccc3)c(F)cc2Cl)cc2cnc(NC(=O)N3CC(O)C3)cc21 [Example 81] ? < 10 nM

###

- System: c-KIT D816V kinase (Homo sapiens, UniProt P10721, D816V)
- Construct: residues T544-V976 with N-terminal GST fusion
- Sequence (P10721 544-976 D816V): as the sequence (P10721 544-976 D816H) above, with H273V counted along it
- Experiment: c-KIT D816V kinase Assay
- Measurement Conditions: enzymatic assay, ATP 200 uM
Each entry below carries its recorded IC50.

Examples from the recorded data:
INSERT INTO results (smiles_input, measurement_name, test_result) VALUES
  ('CCn1c(=O)c(-c2cc(NC(=O)Nc3ccc(F)c(CN4CCN(C)CC4)c3)c(F)cc2C)cc2cnc(N)cc21', 'IC50', '100 to 1000 nM'),
  ('CCn1c(=O)c(-c2cc(NC(=O)Nc3cccc(C#N)c3)c(F)cc2Cl)cc2cnc(NC)cc21', 'IC50', '10 to 100 nM');

--- query ---
Record CNc1cc2c(cn1)cc(-c1cc(NC(=O)Nc3cccc4ccccc34)c(F)cc1Cl)c(=O)n2C : what is its IC50 with c-KIT D816V kinase (Homo sapiens, UniProt P10721, D816V)? 10 to 100 nM
